- System: HCT116 (colorectal carcinoma)
- Method Description: Cytotoxic activity against HCT116
- Format: cell-based
- Measurement Context: Homo sapiens, HCT-116; average of at least three independent experiments
Readout Label: IC50

- Compound: "Cc1cc(C)n2c1C=C1C=CC(NC(=O)OCCSSCC(NC(=O)c3ccc4c(=O)c(O)c(-c5ccccc5)[nH]c4c3)C(N)=O)=[N+]1[B-]2(F)F (centres unmarked) [Compound 11]"
  Readout Label: "IC50"
  Result Value: "> 50 µM"
- Compound: "Cc1cc(C)n2c1C=C1C=CC(NC(=O)OCCSSCC(NC(=O)c3ccc4c(=O)c(O)c(-c5ccc(F)cc5)[nH]c4c3)C(N)=O)=[N+]1[B-]2(F)F (centres unmarked) [Compound 12]"
  Readout Label: "IC50"
  Result Value: "> 50 µM"
- Compound: "Cc1cc(C)n2c1C=C1C=CC(NC(=O)OCCCN3C(=O)CC(SCC(NC(=O)c4ccc5c(=O)c(O)c(-c6ccc(F)cc6)[nH]c5c4)C(N)=O)C3=O)=[N+]1[B-]2(F)F (centres unmarked) [Compound 7]"
  Readout Label: "IC50"
  Result Value: "> 50 µM"
- Compound: "Cc1cc(C)n2c1C=C1C=CC(NC(=O)OCCSSCC(NC(=O)c3ccc4c(=O)c(O)c(-c5cc(Cl)c(N)c(Cl)c5)[nH]c4c3)C(N)=O)=[N+]1[B-]2(F)F (centres unmarked) [Compound 13]"
  Readout Label: "IC50"
  Result Value: "> 50 µM"
- Compound: "Cc1cc(C)n2c1C=C1C=CC(NC(=O)OCCSSCC(NC(=O)c3ccc4c(=O)c(O)c(-c5ccc(N6CCCCC6)c([N+](=O)[O-])c5)[nH]c4c3)C(N)=O)=[N+]1[B-]2(F)F (centres unmarked) [Compound 14]"
  Readout Label: "IC50"
  Result Value: "39.7 µM"

---

Collected pIC50 values appear next to each entry.
- Test system: HCT116 (colorectal carcinoma)
- Method Description: Cytotoxic activity against HCT116
- Type: cell-based
- Measurement Context: Homo sapiens, HCT-116; average of at least three independent experiments
pIC50: −log10 of the molar value.
Readout Label: pIC50

- Compound: "Cc1cc(C)n2c1C=C1C=CC(N)=[N+]1[B-]2(F)F"
  Readout Label: "pIC50"
  Result Value: 4.94
- Compound: "Cc1cc(C)n2c1C=C1C=CC(NC(=O)OCCCN3C(=O)CC(SCC(NC(=O)c4ccc5c(=O)c(O)c(-c6cc(Cl)c(N)c(Cl)c6)[nH]c5c4)C(N)=O)C3=O)=[N+]1[B-]2(F)F (stereo not drawn)"
  Readout Label: "pIC50"
  Result Value: "< 4.30"
- Compound: "Cc1cc(C)n2c1C=C1C=CC(NC(=O)OCCCN3C(=O)CC(SCC(NC(=O)c4ccc5c(=O)c(O)c(-c6ccc(N7CCCCC7)c(C(N)=O)c6)[nH]c5c4)C(N)=O)C3=O)=[N+]1[B-]2(F)F (stereo not drawn)"
  Readout Label: "pIC50"
  Result Value: "< 4.30"

---

IC50 overview
- Test system: HCT116 (colorectal carcinoma)
- Method Description: Cytotoxic activity against HCT116
- Assay type: cell-based
- Measurement Context: Homo sapiens, HCT-116; average of at least three independent experiments
- Description: Finally, the amino‐BODIPY 16 and all prepared conjugates 1–15 were tested for cytotoxic activity against selected cancer cell lines (Table 1). The tests were performed on cancer cell lines derived from solid tumors as well as hematological malignancies: CCRF‐CEM (acute lymphoblastic leukemia), K562 (chronic myeloid leukemia), A549 (lung adenocarcinoma), colorectal carcinoma cell lines HCT116 with and without functional p53 protein HCT116p53, respectively. […]
Readout Label: IC50

- Molecule: "Cc1cc(C)n2c1C=C1C=CC(NC(=O)OCCCN3C(=O)CC(SCC(NC(=O)c4ccc5c(=O)c(O)c(-c6ccc(N7CCCCC7)c([N+](=O)[O-])c6)[nH]c5c4)C(N)=O)C3=O)=[N+]1[B-]2(F)F (stereo not drawn) [Compound 9]"
  Readout Label: "IC50"
  Result Value: "> 50 µM"
- Molecule: "Cc1cc(C)n2c1C=C1C=CC(NC(=O)OCCCN3C(=O)CC(SCC(NC(=O)c4ccc5c(=O)c(O)c(-c6ccccc6)[nH]c5c4)C(N)=O)C3=O)=[N+]1[B-]2(F)F (stereo not drawn) [Compound 6]"
  Readout Label: "IC50"
  Result Value: "> 50 µM"
- Molecule: "Cc1cc(C)n2c1C=C1C=CC(NC(=O)OCCSSCC(NC(=O)c3ccc4c(=O)c(O)c(-c5ccc(N6CCCCC6)c(C(N)=O)c5)[nH]c4c3)C(N)=O)=[N+]1[B-]2(F)F (stereo not drawn) [Compound 15]"
  Readout Label: "IC50"
  Result Value: "> 50 µM"
